Data origin: ChEMBL document CHEMBL1201862

# Tested on: LXFL 529
# assay_info: NCI tumour cell line growth inhibition, 48 h
Active and inactive are the calls of the source. Cut-off read from the data, not from the text of the source: active = GI50 up to about 1.1 µM and inactive = higher.
measurement_label: GI50

>>> measured_result("CCC(=O)N(O)C(C)(C)C")
"> 100 µM (inactive)"
>>> measured_result("CCOC(=O)C(CC/C=C\\c1ccccc1)N1CCC[C@H]1C(=O)OC (stereo partly specified)")
"> 100 µM (inactive)"
>>> measured_result("O=C1/C(=C/c2ccc(C(=O)O)cc2)CNC/C1=C\\c1ccc(C(=O)O)cc1")
"> 100 µM (inactive)"
>>> measured_result("O=C(N/C(=C\\c1ccc(/C=C(\\NC(=O)c2ccccc2)c2nc3ccccc3s2)cc1)c1nc2ccccc2s1)c1ccccc1")
"2.98 µM (inactive)"
>>> measured_result("COC(=O)C1=C(C(=O)OC)C(C(=O)OC)C(C(=O)OC)=C1C(=O)OC")
"> 100 µM (inactive)"
>>> measured_result("O=C(O)CSc1nnc(/C=C/c2ccccc2)[nH]1")
"> 100 µM (inactive)"
>>> measured_result("CCC1CN2CCc3cc(OC)c(OC)cc3C2CC1CC1c2cc(OC)c(OC)cc2CCN1C(=O)C(N)Cc1ccccc1.[O-][Cl+3]([O-])([O-])O (stereo unspecified)")
"1.67 µM (inactive)"
>>> measured_result("COc1cc(C2C(Cl)C(=O)N2NC(=O)c2ccc(NC(C)=O)cc2)cc(OC)c1OC (stereo unspecified)")
"> 100 µM (inactive)"
>>> measured_result("O=C1c2ccccc2C(=O)c2c1ccc1conc21")
"1.8 µM (inactive)"
>>> measured_result("CSC(=S)N(C)c1nc(N(C)C)s[s+]1")
"> 100 µM (inactive)"
>>> measured_result("Nc1nc(O)c2[nH]nnc2n1")
"16.3 µM (inactive)"
>>> measured_result("COC1=CC(=O)[C@]2(C)[C@H](C1=O)C(C)[C@H]2c1ccc(OC)cc1 (stereo partly specified)")
"> 100 µM (inactive)"
>>> measured_result("N#Cc1cc(NC(=O)c2ccccc2)c(=O)n2c1[nH]c1ccccc12")
"33 µM (inactive)"
>>> measured_result("CNc1nc(N(C)C)nc(N(C)C)n1")
"> 100 µM (inactive)"
>>> measured_result("CC(=O)O/N=C(/C)c1ccccc1O")
"> 100 µM (inactive)"
>>> measured_result("Nc1nc(OCc2ccccc2)c2nc[nH]c2n1")
"93.3 µM (inactive)"
